Numbers sourced from patent US20150087627A1.

ASSAYED TARGET: PI3K γ (p110γ) (Homo sapiens)
Construct: purchased Upstate / Millipore Corporation
Sequence (P48736 whole entry): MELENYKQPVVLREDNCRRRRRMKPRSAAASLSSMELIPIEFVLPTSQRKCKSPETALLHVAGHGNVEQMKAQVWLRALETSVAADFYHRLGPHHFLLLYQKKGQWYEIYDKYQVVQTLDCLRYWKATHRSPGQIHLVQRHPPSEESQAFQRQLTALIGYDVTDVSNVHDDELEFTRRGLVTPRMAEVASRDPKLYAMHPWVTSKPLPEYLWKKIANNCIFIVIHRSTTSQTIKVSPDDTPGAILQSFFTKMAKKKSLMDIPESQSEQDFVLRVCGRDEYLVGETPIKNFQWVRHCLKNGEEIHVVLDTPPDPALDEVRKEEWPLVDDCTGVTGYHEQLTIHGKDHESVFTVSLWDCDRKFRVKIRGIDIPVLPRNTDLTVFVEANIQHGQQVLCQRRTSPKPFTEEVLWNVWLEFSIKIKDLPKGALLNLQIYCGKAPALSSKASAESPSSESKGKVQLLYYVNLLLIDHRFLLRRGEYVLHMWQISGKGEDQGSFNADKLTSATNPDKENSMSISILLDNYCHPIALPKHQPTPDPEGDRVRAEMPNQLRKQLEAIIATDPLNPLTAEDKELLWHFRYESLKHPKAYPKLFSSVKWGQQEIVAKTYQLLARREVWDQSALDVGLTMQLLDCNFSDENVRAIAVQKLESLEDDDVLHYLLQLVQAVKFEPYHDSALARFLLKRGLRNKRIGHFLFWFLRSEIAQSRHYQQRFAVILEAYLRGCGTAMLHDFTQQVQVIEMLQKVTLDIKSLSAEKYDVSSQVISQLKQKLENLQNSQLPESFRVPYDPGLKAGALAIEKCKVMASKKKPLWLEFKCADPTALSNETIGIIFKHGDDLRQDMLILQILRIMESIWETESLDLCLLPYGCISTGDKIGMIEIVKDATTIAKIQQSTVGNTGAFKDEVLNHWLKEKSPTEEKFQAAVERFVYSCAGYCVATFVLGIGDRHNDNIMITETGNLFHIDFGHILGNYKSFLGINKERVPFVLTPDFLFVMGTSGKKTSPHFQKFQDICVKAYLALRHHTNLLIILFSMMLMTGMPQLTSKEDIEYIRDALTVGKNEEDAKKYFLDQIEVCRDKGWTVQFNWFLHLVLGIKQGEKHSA
METHOD DESCRIPTION: PI 3-Kinase (human) HTRF assay, PI3K γ
Type: biochemical
STUDY CONDITIONS: read-out: PI3K γ IC50
Consider the following compounds; for each one, report its IC50.

Here's what some known entries look like.
[
  {
    "STRUCTURE STRING": "Nc1nc2cc(-c3ccc4ncc(N5CCC(O)CC5)nc4c3)ccc2o1",
    "IC50": "< 1 µM"
  },
  {
    "STRUCTURE STRING": "CN1CCN([C@@H]2CCN(c3cnc4ccc(-c5ccc6oc(N)nc6c5)cc4n3)C2)CC1",
    "IC50": "> 10 µM"
  },
  {
    "STRUCTURE STRING": "CN1CCN(c2cnc3ccc(-c4ccc5oc(N)nc5c4)cc3n2)CC1=O",
    "IC50": "< 1 µM"
  },
  {
    "STRUCTURE STRING": "Nc1noc2cc(-c3ccc4ncc(C(=O)N5CCOCC5)n4c3)ccc12",
    "IC50": "> 10 µM"
  },
  {
    "STRUCTURE STRING": "Nc1nc2cc(-c3ccc4ncc(N5CCC(N)CC5)nc4c3)ccc2o1",
    "IC50": "> 10 µM"
  },
  {
    "STRUCTURE STRING": "Nc1nc2cc(-c3ccc4ncc(-c5cn[nH]c5)n4n3)ccc2o1",
    "IC50": "< 0.1 µM"
  }
]

Provide IC50 for all items below, preserving their order.
1. Nc1nc2cc(-c3ccc4ncc(-c5cccnc5)n4n3)ccc2o1
2. Nc1nc2cc(-c3ccc4ncc(S(=O)(=O)N5CCOCC5)n4c3)ccc2o1
3. Cc1cc2oc(N)nc2cc1-c1ccc2ncc(N3CCN[C@@H](C)C3)nc2c1

a:
["< 0.1 µM", "> 10 µM", "> 10 µM"]

* * *

Consider the following compounds; for each one, report its pIC50.
ASSAYED TARGET: PI3K γ (p110γ) (Homo sapiens)
Construct: purchased Upstate / Millipore Corporation
METHOD DESCRIPTION: PI 3-Kinase (human) HTRF assay, PI3K γ
Type: biochemical
STUDY CONDITIONS: read-out: PI3K γ IC50
pIC50: −log10 of the molar value.

Here's what some known entries look like.
[
  {
    "COMPOUND": "C[C@@H](N)C(=O)N1CCN(c2cnc3ccc(-c4ccc5oc(N)nc5c4)cc3n2)CC1",
    "pIC50": "> 5.00"
  },
  {
    "COMPOUND": "Nc1nc2cc(-c3ccc4ncc(N5CC(C(=O)N6CCOCC6)C5)nc4c3)ccc2o1 [Compound 252]",
    "pIC50": "> 5.00"
  }
]

Provide pIC50 for all items below, preserving their order.
1. CN1CCN(CCNc2cnc3ccc(-c4ccc5oc(N)nc5c4)cc3n2)CC1
2. C[C@H](N)C(=O)N1CCN(c2cnc3ccc(-c4ccc5oc(N)nc5c4)cc3n2)CC1

a:
> 6.00
> 7.00

* * *

Consider the following compounds; for each one, report its pIC50.
ASSAYED TARGET: PI3K δ (Homo sapiens, UniProt O00329)
Construct: purchased Upstate / Millipore Corporation
Sequence (O00329 whole entry): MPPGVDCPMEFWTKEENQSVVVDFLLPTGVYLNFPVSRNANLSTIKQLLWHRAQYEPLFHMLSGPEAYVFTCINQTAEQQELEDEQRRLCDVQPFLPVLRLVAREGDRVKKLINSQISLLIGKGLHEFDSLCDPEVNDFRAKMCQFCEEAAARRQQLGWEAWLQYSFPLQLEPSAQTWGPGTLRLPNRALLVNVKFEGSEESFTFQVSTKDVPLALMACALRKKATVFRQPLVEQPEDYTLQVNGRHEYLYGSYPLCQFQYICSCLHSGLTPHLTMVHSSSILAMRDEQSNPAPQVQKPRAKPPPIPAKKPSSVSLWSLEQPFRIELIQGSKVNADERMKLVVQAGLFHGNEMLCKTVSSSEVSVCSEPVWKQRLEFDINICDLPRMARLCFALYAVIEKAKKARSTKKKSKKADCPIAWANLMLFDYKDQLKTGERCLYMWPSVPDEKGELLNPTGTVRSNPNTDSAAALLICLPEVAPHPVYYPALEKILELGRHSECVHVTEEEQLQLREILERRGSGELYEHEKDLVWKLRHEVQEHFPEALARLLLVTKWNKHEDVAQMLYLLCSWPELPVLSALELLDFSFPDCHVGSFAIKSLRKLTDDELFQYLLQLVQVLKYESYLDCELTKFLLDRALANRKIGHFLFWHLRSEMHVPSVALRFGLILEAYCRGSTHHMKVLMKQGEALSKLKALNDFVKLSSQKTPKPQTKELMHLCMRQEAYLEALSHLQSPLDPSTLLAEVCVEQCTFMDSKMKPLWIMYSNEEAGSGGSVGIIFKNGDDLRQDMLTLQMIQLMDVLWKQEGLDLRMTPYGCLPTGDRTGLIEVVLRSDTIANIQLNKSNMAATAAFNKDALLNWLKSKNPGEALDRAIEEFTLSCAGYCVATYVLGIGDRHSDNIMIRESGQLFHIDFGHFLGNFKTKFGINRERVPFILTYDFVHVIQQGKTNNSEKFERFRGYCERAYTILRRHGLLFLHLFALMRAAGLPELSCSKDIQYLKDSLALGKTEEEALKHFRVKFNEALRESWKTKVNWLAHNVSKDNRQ
Sequence (P27986 whole entry partner): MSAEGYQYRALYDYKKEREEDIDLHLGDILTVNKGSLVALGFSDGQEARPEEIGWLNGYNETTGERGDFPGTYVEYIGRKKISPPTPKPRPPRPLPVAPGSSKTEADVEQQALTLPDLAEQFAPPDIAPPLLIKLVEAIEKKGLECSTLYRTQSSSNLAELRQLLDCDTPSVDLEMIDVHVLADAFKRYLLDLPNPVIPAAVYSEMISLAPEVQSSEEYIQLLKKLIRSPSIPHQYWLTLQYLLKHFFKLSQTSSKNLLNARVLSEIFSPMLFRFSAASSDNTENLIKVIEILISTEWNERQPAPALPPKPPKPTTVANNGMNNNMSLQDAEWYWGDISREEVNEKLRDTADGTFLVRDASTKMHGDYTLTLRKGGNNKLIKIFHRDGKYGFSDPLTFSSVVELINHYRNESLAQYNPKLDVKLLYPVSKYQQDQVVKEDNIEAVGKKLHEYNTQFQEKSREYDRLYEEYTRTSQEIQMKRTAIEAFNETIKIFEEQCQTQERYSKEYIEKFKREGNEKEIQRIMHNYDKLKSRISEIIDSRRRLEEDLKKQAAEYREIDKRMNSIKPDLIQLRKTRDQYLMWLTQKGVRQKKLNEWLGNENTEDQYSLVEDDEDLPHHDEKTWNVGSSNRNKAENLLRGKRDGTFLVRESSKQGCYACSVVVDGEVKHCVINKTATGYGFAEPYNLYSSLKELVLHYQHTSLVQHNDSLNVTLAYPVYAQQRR
METHOD DESCRIPTION: PI 3-Kinase (human) HTRF assay, PI3K δ
Format: biochemical
STUDY CONDITIONS: read-out: PI3K δ IC50
pIC50: −log10 of the molar value.

Here's what some known entries look like.
[
  {
    "STRUCTURE STRING": "Nc1nsc2cc(-c3ccc4ncc(C(=O)N5CCOCC5)n4c3)ccc12",
    "pIC50": "< 5.00"
  },
  {
    "STRUCTURE STRING": "Cc1cc(-c2ccc3ncc(N4CC(N5CCOCC5)C4)nc3c2)cc2nc(N)oc12",
    "pIC50": "> 5.00"
  },
  {
    "STRUCTURE STRING": "Nc1nc2cc(-c3ccn4ncc(C(=O)N5CCCC5)c4c3)ccc2o1",
    "pIC50": "< 5.00"
  },
  {
    "STRUCTURE STRING": "C[C@H]1CN(c2cnc3scc(-c4ccc5oc(N)nc5c4)c3c2)CCN1",
    "pIC50": "< 5.00"
  },
  {
    "STRUCTURE STRING": "Nc1nc2cc(-c3ccn4ncc(C(=O)N5CCC(N6CCOCC6)CC5)c4c3)ccc2o1",
    "pIC50": "> 5.00"
  },
  {
    "STRUCTURE STRING": "Nc1nc2cc(-c3ccc4ncc(N5CCOCC5)nc4c3)ccc2s1",
    "pIC50": "< 5.00"
  },
  {
    "STRUCTURE STRING": "Nc1nc2cc(-c3ccc4ncc(C(=O)N5CC(F)(F)C5)n4c3)ccc2o1",
    "pIC50": "< 5.00"
  },
  {
    "STRUCTURE STRING": "Nc1noc2c(-c3ccc4ncc(C(=O)N5CCOCC5)n4c3)cccc12",
    "pIC50": "< 5.00"
  }
]

Consider the record given below.
q: Test system PI3K δ (Homo sapiens, UniProt O00329); read-out pIC50; what value for CS(=O)(=O)CCN1CCC(Nc2cnc3ccc(-c4ccc5oc(N)nc5c4)cc3n2)CC1 ?
a: > 6.00
